tested on: dog renal Na,K-ATPase (Canis lupus familiaris, UniProt P50997)
Construct: incubated with 0.3 μg of purified dog kidney enzyme; from tissue; host or cells: dog kidney outer medulla
experiment description: Inhibition of dog renal Na,K-ATPase activity (32P-ATP release)
Assay type: biochemical
assay setup: purified dog kidney enzyme; read-out: IC50, inhibition of dog renal Na,K-ATPase
Consider the cut-off 3000 nM. If the recorded IC50 is strictly smaller, the label is condition met; if not, the label is condition not met.

[[record]]
molecule = "C[C@]12CC[C@H](O)C[C@H]1CCC1C2CC[C@]2(C)[C@@H](CCc3cc(CCN)on3)CC[C@]12O (some centres unmarked)"
class_assignment = "condition met"

[[record]]
molecule = "C[C@]12CC[C@H](O)C[C@H]1CCC1C2CC[C@]2(C)[C@@H](CCc3cc(CCCN)on3)CC[C@]12O (some centres unmarked)"
class_assignment = "condition not met"

[[record]]
molecule = "C[C@]12[C@H](O)CC3C(CC[C@@H]4C[C@@H](O)CC[C@]34C)[C@@]1(O)CC[C@@H]2c1c[nH]cn1 (some centres unmarked)"
class_assignment = "condition met"


Exercise: Confirm or reject: IC50 of C[C@]12CC[C@H](O)C[C@H]1CCC1C2CC[C@]2(C)[C@@H](c3cc(CCCN)on3)CC[C@]12O (some centres unmarked) lies strictly below 3000 nM
Key: condition met

Exercise: Can you check C[C@]12CC[C@H](O)C[C@H]1CCC1C2CC[C@]2(C)[C@@H](c3cn(CCCN)cn3)CC[C@]12O (some centres unmarked) next?
Key: condition not met
